Data credit: patent US12281122B1

Reported IC50 values for a set of compounds
- Test system: SKBR3 (PI3Kα-Wild Type) cell line
- run.description: HTRF phospho-AKT(S473) cell assay in SKBR3 cells
- Type: cell-based, human
- run.parameters: Homo sapiens, SK-BR-3; SKBR3 (PI3Kα-Wild Type) cells, HTRF phospho-AKT(S473), 2 hours compound incubation, PDGF-BB stimulated

# example entries with known answers
>>> val("Cc1cc([C@@H](C)Nc2ccc(Cl)nc2C(=O)NS(C)(=O)=O)c2nc(N3[C@@H]4CC[C@H]3C[C@H](c3cnn(C)c3)C4)n(C)c(=O)c2c1 [Compound 298]")
"≥ 5 µM"
>>> val("Cc1cc([C@@H](C)Nc2ccc(Cl)nc2C(=O)NS(C)(=O)=O)c2nc(N3CCC(c4cnc(C)cn4)CC3)n(C)c(=O)c2c1 [Compound 272]")
"1 to 5 µM"
>>> val("Cc1cc([C@@H](C)Nc2ccc(Cl)nc2C(=O)NS(C)(=O)=O)c2nc(N3CC[C@@H](Oc4ccc(F)cc4)C3)n(C)c(=O)c2c1 [Compound 203]")
"1 to 5 µM"

Sure, the documented IC50 for Cc1cc([C@@H](C)Nc2ccc(Cl)nc2C(=O)NS(C)(=O)=O)c2nc(N3C[C@@H]4[C@H](C3)[C@H]4c3ccnn3C)n(C)c(=O)c2c1 [Compound 296] is 1 to 5 µM

Just so you know, measured IC50 for Cc1cc([C@@H](C)Nc2ccc(Cl)nc2C(=O)NS(C)(=O)=O)c2nc(N3CCC[C@@H](Oc4cccnc4)C3)n(C)c(=O)c2c1 [Compound 343] came out at ≥ 5 µM

###

IC50 by entry:
- Tested on: SKBR3 (PI3Kα-Wild Type) cell line
- run.description: HTRF phospho-AKT(S473) cell assay in SKBR3 cells
- Type: cell-based, human
- run.parameters: Homo sapiens, SK-BR-3; SKBR3 (PI3Kα-Wild Type) cells, HTRF phospho-AKT(S473), 2 hours compound incubation, PDGF-BB stimulated

Sample answers from the record:
>>> val("Cc1cc([C@@H](C)Nc2ccc(Cl)nc2C(=O)NS(C)(=O)=O)c2nc(N3C[C@@H]4C[C@H]3CN4c3ccn(C)n3)n(C)c(=O)c2c1 [Compound 228]")
"1 to 5 µM"
>>> val("Cc1cc([C@@H](C)Nc2ccc(Cl)nc2C(=O)NS(C)(=O)=O)c2nc(N3Cc4n[nH]c(N)c4C3)n(C)c(=O)c2c1 [Compound 148]")
"≥ 5 µM"
>>> val("Cc1cc([C@@H](C)Nc2ccc(Cl)nc2C(=O)NS(C)(=O)=O)c2nc(N3CCC(n4nccc4N(C)C)CC3)n(C)c(=O)c2c1 [Compound 309]")
"≥ 5 µM"
>>> val("Cc1cc([C@@H](C)Nc2ccc(Cl)nc2S(=O)(=O)NC(=O)C(C)C)c2nc(N3Cc4ccc(F)cc4C3)n(C)c(=O)c2c1 [Compound 80]")
"≥ 5 µM"
>>> val("Cc1cc([C@@H](C)Nc2ccc(Cl)nc2C(=O)NS(C)(=O)=O)c2nc(N3Cc4cn(C5(C(F)(F)F)CC5)nc4C3)n(C)c(=O)c2c1 [Compound 185]")
"1 to 5 µM"
>>> val("Cc1cc([C@@H](C)Nc2ccc(Cl)nc2C(=O)NS(C)(=O)=O)c2nc(N3C[C@H]4C[C@@H]3CO4)n(C)c(=O)c2c1 [Compound 26]")
"1 to 5 µM"
>>> val("Cc1cc([C@@H](C)Nc2ccc(Cl)nc2C(=O)NS(C)(=O)=O)c2nc([C@@H]3CCCN(c4cccnc4)C3)n(C)c(=O)c2c1 (relative stereo) [Compound 211]")
"1 to 5 µM"
>>> val("Cc1cc([C@@H](C)Nc2ccc(Cl)nc2C(=O)NS(C)(=O)=O)c2nc(N3C[C@@H]4[C@H](C3)[C@H]4c3cnc(C)cn3)n(C)c(=O)c2c1 [Compound 394]")
"1 to 5 µM"

// IC50 lookup, compound = Cc1cc([C@@H](C)Nc2ccc(Cl)nc2C(=O)NS(C)(=O)=O)c2nc(N3CCC(C)(c4ccnn4C)CC3)n(C)c(=O)c2c1 [Compound 302] , result: 1 to 5 µM

Noted for CCn1cc2c(n1)CN(c1nc3c([C@@H](C)Nc4ccc(Cl)nc4C(=O)NS(C)(=O)=O)cc(C)cc3c(=O)n1C)C2 [Compound 44] : its IC50 reads 1 to 5 µM

The reported value for Cc1cc([C@@H](C)Nc2ccc(Cl)nc2C(=O)NS(C)(=O)=O)c2nc(N3CCC(c4cnc(C)nc4)CC3)n(C)c(=O)c2c1 [Compound 261] in terms of IC50 is 1 to 5 µM

###

- System: SKBR3 (PI3Kα-Wild Type) cell line
- run.description: HTRF phospho-AKT(S473) cell assay in SKBR3 cells
- Assay type: cell-based, human
- run.parameters: Homo sapiens, SK-BR-3; SKBR3 (PI3Kα-Wild Type) cells, HTRF phospho-AKT(S473), 2 hours compound incubation, PDGF-BB stimulated
Reported IC50 values are given for each entry in this list.

Memo: COc1cnn(C2CCN(c3nc4c([C@@H](C)Nc5ccc(Cl)nc5C(=O)NS(C)(=O)=O)cc(C)cc4c(=O)n3C)CC2)c1 [Compound 311] , reported IC50: 1 to 5 µM

Entry under test: C[C@@H](Nc1ccc(Cl)nc1C(=O)NS(C)(=O)=O)c1cc(F)cc2c(=O)n(C)c(N3CCC(c4nn(C)cc4F)CC3)nc12 [Compound 364] . Its IC50 was 1 to 5 µM

Form: compound = Cc1cc([C@@H](C)Nc2ccc(Cl)nc2C(=O)NS(C)(=O)=O)c2nc(N3CCC(c4nccnc4C)CC3)n(C)c(=O)c2c1 [Compound 438] ; IC50 = ≥ 5 µM

Value of IC50 reported for the compound Cc1cc([C@@H](C)Nc2ccc(Cl)nc2C(=O)NS(C)(=O)=O)c2nc(N3CCN(c4cnc(C)cn4)CC3)n(C)c(=O)c2c1 [Compound 369] is 1 to 5 µM

Query Cc1cc([C@@H](C)Nc2ccc(Cl)nc2C(=O)NS(C)(=O)=O)c2nc(N3Cc4cnn(-c5cccnc5C)c4C3)n(C)c(=O)c2c1 [Compound 252] yields IC50 of 1 to 5 µM

The recorded IC50 for entry Cc1cc([C@@H](C)Nc2ccc(Cl)nc2C(=O)NS(C)(=O)=O)c2nc(N3CC[C@@H](Oc4ccc(F)cc4)C3)n(C)c(=O)c2c1 (relative stereo) [Compound 236] equals 1 to 5 µM

###

- Test system: SKBR3 (PI3Kα-Wild Type) cell line
- run.description: HTRF phospho-AKT(S473) cell assay in SKBR3 cells
- Type: cell-based, human
- run.parameters: Homo sapiens, SK-BR-3; HTRF phospho-AKT(S473), SKBR3 (PI3Kα-Wild Type) cells, 2 hours compound incubation, PDGF-BB stimulated
pIC50: −log10 of the molar value.
measured.metric: pIC50

Some solved cases for reference:
>>> val("Cc1cc([C@@H](C)Nc2ccc(Cl)nc2C(=O)NS(C)(=O)=O)c2nc(N3C[C@@H]4C(c5cnc(C(F)F)nc5)[C@@H]4C3)n(C)c(=O)c2c1 (some centres unmarked)")
"5.30 to 6.00"
>>> val("Cc1cc([C@@H](C)Nc2ccc(Cl)nc2C(=O)NS(C)(=O)=O)c2nc(N3CCC(n4ncc(F)c4C)CC3)n(C)c(=O)c2c1")
"5.30 to 6.00"
>>> val("Cc1cc([C@@H](C)Nc2ccc(Cl)nc2C(=O)NS(C)(=O)=O)c2nc(N3CCC(c4ncn(CC(F)(F)F)n4)CC3)n(C)c(=O)c2c1")
"≤ 5.30"
>>> val("Cc1cc([C@@H](C)Nc2ccc(Cl)nc2C(=O)NS(C)(=O)=O)c2nc(N3C[C@@H]4[C@H](C3)[C@H]4c3cc(C)[nH]n3)n(C)c(=O)c2c1")
"5.30 to 6.00"
>>> val("Cc1cc([C@@H](C)Nc2ccc(Cl)nc2C(=O)NS(C)(=O)=O)c2nc(N3CC[C@H](c4ccc(C)nc4)C3)n(C)c(=O)c2c1 (relative stereo)")
"≤ 5.30"

The value of pIC50 measured for the molecule Cc1cc([C@@H](C)Nc2ccc(Cl)nc2C(=O)NS(C)(=O)=O)c2nc(N3C[C@@H]4[C@H](C3)[C@H]4n3cc(Cl)cn3)n(C)c(=O)c2c1 turned out to be ≤ 5.30

Entry Cc1cnc(N2C[C@H]3C[C@@H]2CN3c2nc3c([C@@H](C)Nc4ccc(Cl)nc4C(=O)NS(C)(=O)=O)cc(C)cc3c(=O)n2C)nc1 ; pIC50 = ≤ 5.30

Quick note, pIC50 for Cc1cc([C@@H](C)Nc2ccc(Cl)nc2C(=O)NS(C)(=O)=O)c2nc(N3C[C@@H]4[C@H](C3)[C@H]4c3cnc(C(F)(F)F)nc3)n(C)c(=O)c2c1 landed at 5.30 to 6.00

###

As shown below, each of these molecules has a reported pIC50 value.
- System: SKBR3 (PI3Kα-Wild Type) cell line
- run.description: HTRF phospho-AKT(S473) cell assay in SKBR3 cells
- Format: cell-based, human
- run.parameters: Homo sapiens, SK-BR-3; HTRF phospho-AKT(S473), SKBR3 (PI3Kα-Wild Type) cells, 2 hours compound incubation, PDGF-BB stimulated
pIC50: −log10 of the molar value.

Recorded results for 5 molecules are shown here.
>>> val("Cc1cc([C@@H](C)Nc2ccc(Cl)nc2C(=O)NS(C)(=O)=O)c2nc(N3C[C@H]4C[C@@H]3CN4c3cnc(C)cn3)n(C)c(=O)c2c1")
"≤ 5.30"
>>> val("Cc1cc([C@@H](C)Nc2ccc(Cl)nc2C(=O)NS(C)(=O)=O)c2nc(N3C[C@@H]4[C@H](C3)[C@H]4c3cc(C)n(C4CC4)n3)n(C)c(=O)c2c1")
"≤ 5.30"
>>> val("Cc1cc([C@@H](C)Nc2ccc(Cl)nc2C(=O)NS(C)(=O)=O)c2nc(N3CCC[C@@H](c4ccnn4C(F)F)C3)n(C)c(=O)c2c1 (relative stereo)")
"≤ 5.30"
>>> val("Cc1cc([C@@H](C)Nc2ccc(Cl)nc2C(=O)NS(C)(=O)=O)c2nc(N3C[C@@H]4[C@H](C3)[C@H]4c3ccn(C(F)F)n3)n(C)c(=O)c2c1")
"5.30 to 6.00"
>>> val("Cc1cc([C@@H](C)Nc2ccc(Cl)nc2C(=O)NS(C)(=O)=O)c2nc(N3CCC(c4ncc(Cl)cn4)CC3)n(C)c(=O)c2c1")
"≤ 5.30"

Record summary for Cc1cc([C@@H](C)Nc2ccc(Cl)nc2C(=O)NS(C)(=O)=O)c2nc(N3CCN(c4cc(C)nc(C)n4)CC3)n(C)c(=O)c2c1 : reported pIC50 = ≤ 5.30
